Tested on: DU-145 prostate
Assay Protocol: NCI tumour cell line growth inhibition, 48 h; in the data active means GI50 below about 0.43 µM; inactive means the rest
The reply should be one of these categories: active, inactive

Some solved cases for reference:
Compound: CCc1c(C#N)c(SC(C(N)=O)c2ccccc2)nc(N2CCC(N)CC2)c1C#N (stereo not given)
Label Value: inactive
--
Compound: COC(=O)c1ccc2c(c1)C(=O)c1c-2n(CCCCl)c(=O)c2cc(OC)c(OC)cc12
Label Value: inactive
--
Compound: COC(=O)C1=Nc2ccc(F)cc2/C1=C/c1sc(=S)[nH]c1O
Label Value: active
--
Compound: CCOC(=O)C1=CSC2=NC3=C(CCC/C3=C\c3cc(OC)c(OC)c(OC)c3)C(c3cc(OC)c(OC)c(OC)c3)N12 (stereo not given)
Label Value: inactive

Now consider a different compound.
Recorded test outcome, item "Cc1cc(-c2ccco2)cc(C)c1/C=C/c1cncc(-c2nn[nH]n2)c1" inactive
